This collection of values is drawn from patent US20060063759A1.

measured.metric: melting point (°C)

{"compound": "Nc1cc(C=C2c3ccccc3CCc3ccccc32)ccc1O [Example 63]", "melting point / °C": 158.8}
{"compound": "COc1ccc(C=C2c3ccccc3CCc3ccccc32)cc1Br [Example 34]", "melting point / °C": 140.7}
{"compound": "CNS(=O)(=O)c1cccc(C=C2c3ccccc3CCc3ccccc32)c1 [Example 1]", "melting point / °C": 153.9}
{"compound": "CS(=O)(=O)Nc1cc(C=C2c3ccccc3CCc3ccccc32)ccc1O [Example 64]", "melting point / °C": 122.6}

====

# pKi listing for each entry below
measured.target: glucocorticoid receptor (Homo sapiens)
Sequence (P04150 1-777): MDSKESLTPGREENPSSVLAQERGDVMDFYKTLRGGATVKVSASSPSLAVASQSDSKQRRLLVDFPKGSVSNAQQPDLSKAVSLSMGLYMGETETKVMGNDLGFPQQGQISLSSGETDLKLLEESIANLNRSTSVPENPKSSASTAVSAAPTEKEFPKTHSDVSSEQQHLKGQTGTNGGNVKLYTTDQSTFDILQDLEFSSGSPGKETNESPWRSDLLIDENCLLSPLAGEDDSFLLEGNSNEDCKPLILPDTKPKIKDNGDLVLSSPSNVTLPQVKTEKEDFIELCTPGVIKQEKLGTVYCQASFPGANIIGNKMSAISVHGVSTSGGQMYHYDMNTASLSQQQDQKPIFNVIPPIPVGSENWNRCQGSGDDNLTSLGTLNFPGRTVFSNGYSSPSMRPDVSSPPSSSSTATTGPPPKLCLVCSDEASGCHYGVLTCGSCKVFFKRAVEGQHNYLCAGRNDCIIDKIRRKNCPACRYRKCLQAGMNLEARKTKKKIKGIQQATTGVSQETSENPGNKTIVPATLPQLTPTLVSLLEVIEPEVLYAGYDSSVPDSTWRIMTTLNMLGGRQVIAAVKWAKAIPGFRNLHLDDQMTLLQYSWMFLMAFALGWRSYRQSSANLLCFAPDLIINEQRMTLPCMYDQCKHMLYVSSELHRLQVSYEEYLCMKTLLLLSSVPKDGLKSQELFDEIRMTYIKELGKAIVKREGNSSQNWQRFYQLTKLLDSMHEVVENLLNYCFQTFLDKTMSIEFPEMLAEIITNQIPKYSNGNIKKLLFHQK
pKi: −log10 of the molar value.

{"mol": "COc1ccc2c(c1)OCc1ccccc1/C2=C\\c1cccc(NS(C)(=O)=O)c1", "result": "> 6.30"}
{"mol": "COc1ccc2c(c1)CCc1cc(C)ccc1/C2=C\\c1cccc(NS(C)(=O)=O)c1", "result": "> 6.30"}
{"mol": "Cc1cccc2c1OCc1ccccc1/C2=C/c1cccc(NS(C)(=O)=O)c1", "result": "> 6.30"}
{"mol": "O=c1[nH]c2ccc(/C=C3/c4ccccc4CCc4cc(C(F)(F)F)ccc43)cc2[nH]1", "result": "> 5.00"}
{"mol": "FC(F)c1ccc(C=C2c3ccccc3CCc3ccccc32)cc1", "result": "> 6.00"}
{"mol": "CS(=O)(=O)Nc1cccc(/C=C2\\c3ccccc3CCc3c2cccc3C(F)F)c1", "result": "> 6.30"}

State its pKi: Oc1cccc(/C=C2/c3ccccc3CCc3cc(C(F)F)ccc32)c1
> 6.30

State its pKi: CS(=O)(=O)Nc1cc(F)cc(/C=C2/c3ccc(F)cc3CCc3ncccc32)c1
> 6.30

State its pKi: CS(=O)(=O)Nc1ccc2c(c1)CCc1ccccc1/C2=C\c1cccc(O)c1
> 6.00

====

measured.target: glucocorticoid receptor (Homo sapiens, UniProt P04150)
Sequence (P04150 1-777): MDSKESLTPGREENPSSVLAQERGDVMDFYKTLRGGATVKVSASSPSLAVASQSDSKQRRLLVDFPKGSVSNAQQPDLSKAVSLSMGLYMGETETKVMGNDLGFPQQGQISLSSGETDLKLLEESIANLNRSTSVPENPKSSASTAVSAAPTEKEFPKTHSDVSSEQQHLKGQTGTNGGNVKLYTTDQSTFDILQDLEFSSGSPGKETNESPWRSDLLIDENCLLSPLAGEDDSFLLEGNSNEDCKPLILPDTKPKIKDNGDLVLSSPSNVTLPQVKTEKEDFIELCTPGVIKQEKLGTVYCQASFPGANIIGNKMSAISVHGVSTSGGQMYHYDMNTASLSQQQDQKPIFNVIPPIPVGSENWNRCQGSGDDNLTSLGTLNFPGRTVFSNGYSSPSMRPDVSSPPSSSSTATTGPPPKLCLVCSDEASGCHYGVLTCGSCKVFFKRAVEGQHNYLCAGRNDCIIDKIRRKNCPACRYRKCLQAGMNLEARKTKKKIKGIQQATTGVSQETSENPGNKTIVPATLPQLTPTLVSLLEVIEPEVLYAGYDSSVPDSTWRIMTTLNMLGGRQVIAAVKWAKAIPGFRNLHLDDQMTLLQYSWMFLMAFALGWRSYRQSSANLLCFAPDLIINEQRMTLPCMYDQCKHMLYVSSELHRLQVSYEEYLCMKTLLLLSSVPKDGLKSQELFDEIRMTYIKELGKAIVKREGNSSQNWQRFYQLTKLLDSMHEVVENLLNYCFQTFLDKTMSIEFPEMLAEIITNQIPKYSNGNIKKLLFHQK
# Ki listing for each entry below

{"compound": "COc1ccc2c(c1)COc1cc(F)ccc1/C2=C/c1cccc(NS(C)(=O)=O)c1 [Example 736]", "measured.target": "glucocorticoid receptor (Homo sapiens, UniProt P04150)", "Ki": "< 500 nM"}
{"compound": "CS(=O)(=O)Nc1ccc(C=C2c3ccccc3CCc3sccc32)cc1 [Example 495]", "measured.target": "glucocorticoid receptor (Homo sapiens, UniProt P04150)", "Ki": "< 500 nM"}

State its Ki: O=C1Cc2ccc(C=C3c4ccccc4CCc4ccccc43)cc2N1 [Example 447]
< 500 nM

State its Ki: CS(=O)(=O)c1cccc(C=C2c3ccccc3CCc3ccccc32)c1 [Example 279]
< 10000 nM

State its Ki: COc1cccc2c1C(=Cc1cccc(NS(C)(=O)=O)c1)c1ccccc1CC2 [Example 353]
< 500 nM

State its Ki: O=C(Nc1cccc(/C=C2\c3ccccc3CCc3cc(Cl)ccc32)c1)C(F)(F)F [Example 413]
< 500 nM

State its Ki: CS(=O)(=O)Nc1cccc(C=C2c3ccccc3CCc3cc(-c4ccccc4)ccc32)c1 [Example 412]
< 1000 nM

State its Ki: CSc1ccc2c(c1)CCc1ccccc1/C2=C/c1cccc(NS(C)(=O)=O)c1 [Example 389]
< 500 nM

State its Ki: Cc1nc2c(s1)/C(=C/c1cccc(NS(C)(=O)=O)c1)c1ccccc1CC2 [483(a)]
< 500 nM

State its Ki: O=c1[nH]c2cc(C=C3c4ccc(F)cc4CCc4cc(F)ccc43)ccc2n1CCN1CCOCC1 [Example 436]
< 1000 nM

====

measured.target: human MR (Homo sapiens)
Construct: The full length human MR gene is cloned from a human kidney or human brain cDNA library; His tag from the pAcHLT vector (own knowledge); made in house; host or cells: Sf9 insect cells (baculovirus, pAcHLT transfer vector)
Sequence (P08235 whole entry): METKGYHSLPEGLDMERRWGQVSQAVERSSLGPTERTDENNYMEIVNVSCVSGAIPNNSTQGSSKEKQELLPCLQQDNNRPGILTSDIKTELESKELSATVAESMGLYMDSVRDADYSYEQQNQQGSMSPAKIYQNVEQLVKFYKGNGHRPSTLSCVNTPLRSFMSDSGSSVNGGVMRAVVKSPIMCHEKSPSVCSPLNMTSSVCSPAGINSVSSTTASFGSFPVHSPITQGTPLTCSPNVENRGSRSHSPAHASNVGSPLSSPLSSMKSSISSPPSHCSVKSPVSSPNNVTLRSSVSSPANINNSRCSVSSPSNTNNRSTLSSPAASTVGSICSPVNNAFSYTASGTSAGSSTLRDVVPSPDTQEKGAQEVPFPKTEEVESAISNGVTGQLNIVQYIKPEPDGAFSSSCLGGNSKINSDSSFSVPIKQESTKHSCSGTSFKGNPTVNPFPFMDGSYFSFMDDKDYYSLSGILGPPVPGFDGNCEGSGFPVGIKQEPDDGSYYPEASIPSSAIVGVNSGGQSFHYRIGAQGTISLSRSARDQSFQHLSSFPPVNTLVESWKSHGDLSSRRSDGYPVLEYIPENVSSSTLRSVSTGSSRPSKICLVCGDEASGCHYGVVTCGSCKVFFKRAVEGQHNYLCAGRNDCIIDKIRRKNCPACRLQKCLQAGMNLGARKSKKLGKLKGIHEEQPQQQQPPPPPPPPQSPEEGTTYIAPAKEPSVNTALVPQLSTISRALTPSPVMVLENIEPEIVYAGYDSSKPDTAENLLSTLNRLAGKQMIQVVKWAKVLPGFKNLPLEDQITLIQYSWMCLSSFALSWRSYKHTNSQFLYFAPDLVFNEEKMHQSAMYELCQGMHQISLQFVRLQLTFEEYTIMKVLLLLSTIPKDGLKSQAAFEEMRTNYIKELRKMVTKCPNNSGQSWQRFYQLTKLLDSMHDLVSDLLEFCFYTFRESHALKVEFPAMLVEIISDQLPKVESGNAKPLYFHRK
method.description: Mineralocorticoid Receptor Binding Assay ([3H]-aldosterone)
condition.summary: [3H]-aldosterone binding, human MR expressed in Sf9 cells; read-out: MR Ki
# Ki listing for each entry below

Here's what some known entries look like.
{"mol": "CS(=O)(=O)Nc1cc(F)cc(/C=C2/c3ccc(F)cc3CCc3nc(C(F)F)ccc32)c1", "Ki": "< 500 nM"}
{"mol": "CS(=O)(=O)c1cccc(C=C2c3ccccc3CCc3ccccc32)c1", "Ki": "< 500 nM"}
{"mol": "C/C(=C1\\c2ccc(Cl)cc2COc2cc(F)ccc21)c1cccc(NS(C)(=O)=O)c1", "Ki": "< 500 nM"}
{"mol": "O=c1[nH]c2cc(C=C3c4ccccc4CCc4cc(Cl)ccc43)ccc2o1", "Ki": "< 500 nM"}
{"mol": "CS(=O)(=O)Nc1ccc(C=C2c3ccccc3CCc3cc(Cl)ccc32)cc1", "Ki": "< 500 nM"}
{"mol": "C/C(=C1/c2ccc(F)cc2CCc2ncccc21)c1cc(F)cc(NS(C)(=O)=O)c1", "Ki": "< 500 nM"}
{"mol": "O=S(=O)(Cc1cccc(/C=C2\\c3ccccc3CSc3ccccc32)c1)c1cccc(C(F)(F)F)c1", "Ki": "< 500 nM"}

Lab note: next compound to report on.
State its Ki: O=S(=O)(Nc1cccc(C=C2c3ccccc3CCc3cc(Cl)ccc32)c1)c1ccccc1
< 500 nM

====

Quick note: these are Ki numbers for system: glucocorticoid receptor (Homo sapiens, UniProt P04150)

Here's what some known entries look like.
{"mol": "CCC/C(=C1\\c2ccccc2COc2ccccc21)c1cccc(NS(C)(=O)=O)c1", "result": "< 0.5 µM"}
{"mol": "Nc1ccccc1C=C1c2ccccc2CCc2ccccc21", "result": "< 0.5 µM"}
{"mol": "CS(=O)(=O)Nc1cccc(/C=C2\\c3ccc(Cl)cc3CCc3ncsc32)c1", "result": "< 0.5 µM"}

Given CS(=O)(=O)Nc1cccc(/C=C2\c3ccccc3CSc3cc(F)ccc32)c1 , report its Ki on glucocorticoid receptor (Homo sapiens, UniProt P04150).
< 0.5 µM

Given COc1ccc(OC)c(C=C2c3ccccc3CCc3ccccc32)c1 , report its Ki on glucocorticoid receptor (Homo sapiens, UniProt P04150).
< 10 µM

Given Oc1cccc(/C=C2\c3ccccc3CCc3c(O)cccc32)c1 , report its Ki on glucocorticoid receptor (Homo sapiens, UniProt P04150).
< 0.5 µM

Given O=c1[nH]c2cc(C=C3c4ccc(F)cc4CCc4cc(F)ccc43)ccc2o1 , report its Ki on glucocorticoid receptor (Homo sapiens, UniProt P04150).
< 0.5 µM

Given CNS(=O)(=O)c1cccc(C=C2c3ccccc3CCc3ccccc32)c1 , report its Ki on glucocorticoid receptor (Homo sapiens, UniProt P04150).
< 0.5 µM

Given CS(=O)(=O)Nc1cccc(C=C2c3ccccc3CCc3cc(N)ccc32)c1 , report its Ki on glucocorticoid receptor (Homo sapiens, UniProt P04150).
< 0.5 µM

Given COc1cc2c(c(OC)c1)/C(=C\c1cccc(NS(C)(=O)=O)c1)c1ccccc1SC2 , report its Ki on glucocorticoid receptor (Homo sapiens, UniProt P04150).
< 0.5 µM

Given COc1cccc2c1/C(=C\c1cccc(NS(C)(=O)=O)c1)c1ccccc1OC2 , report its Ki on glucocorticoid receptor (Homo sapiens, UniProt P04150).
< 0.5 µM

Given CS(=O)(=O)Nc1cccc(/C=C2\c3ccccc3CCc3cc(F)ccc32)c1 , report its Ki on glucocorticoid receptor (Homo sapiens, UniProt P04150).
< 0.5 µM

Given Cn1c(=O)[nH]c2cc(C=C3c4ccc(F)cc4CCc4cc(F)ccc43)ccc21 , report its Ki on glucocorticoid receptor (Homo sapiens, UniProt P04150).
< 1 µM
